// data source = ChEMBL document CHEMBL1201862

# System: OVCAR-3
# assay method text: NCI tumour cell line growth inhibition, 48 h
The source made the active and inactive calls. No stated cut-off is given here; in the data, active = GI50 up to about 1.1 µM and inactive = higher.
Entries annotated with measured GI50

Below: 10 molecules and their reported GI50.
{"columns": ["molecule", "experimental system", "readout type", "result"],
 "data": [
  ["NCC1CCCCC1.O=C(O)NCC1CCCCC1", "OVCAR-3", "GI50", "4.89 µM (inactive)"],
  ["Cc1cc(O)c(C(C)C)cc1NC(=O)Nc1cccc2ccccc12", "OVCAR-3", "GI50", "16 µM (inactive)"],
  ["O=C1OC(c2ccc(O)c(F)c2)(c2ccc(O)c(F)c2)c2cccc3cccc1c23", "OVCAR-3", "GI50", "5.9 µM (inactive)"],
  ["COc1c(OC)c(N)c2cc(C)c(=O)c(C)cc2c1N", "OVCAR-3", "GI50", "> 100 µM (inactive)"],
  ["CN(C)c1nc(N(C)C)nc(N(C)CN(C)c2ccccc2)n1", "OVCAR-3", "GI50", "> 100 µM (inactive)"],
  ["CC(O)c1cc2c(s1)C(=O)c1scc(C(C)O)c1C2=O (configuration not stated)", "OVCAR-3", "GI50", "0.393 µM (active)"],
  ["NC1CC(=O)c2cc(Cl)sc21 (configuration not stated)", "OVCAR-3", "GI50", "> 100 µM (inactive)"],
  ["CCOP(=O)(OCC)C1CCCOC1=O (configuration not stated)", "OVCAR-3", "GI50", "> 100 µM (inactive)"],
  ["Cc1ccc(S(=O)(=O)[C@@H](Cl)[C@H]2N=C(Cl)NN=C2c2ccccc2)cc1", "OVCAR-3", "GI50", "14.7 µM (inactive)"],
  ["O=c1oc2ccc3ccccc3c2cc1-c1cn2ccccc2n1", "OVCAR-3", "GI50", "> 100 µM (inactive)"]
]}

Would you kindly look at the next entry?
Query: So what does the record say about GI50 for CC1(C)C2CC(=O)C1(C)C(OCc1ccccc1)C2 (configuration not stated) ?
Result: 62.7 µM (inactive)

====

Entries annotated with measured GI50
# Tested on: DMS-273
# assay method text: NCI tumour cell line growth inhibition, 48 h
Active and inactive are the calls of the source. Cut-off read from the data, not from the text of the source: active = GI50 up to about 1.1 µM and inactive = higher.

Below: 5 molecules and their reported GI50.
{"columns": ["molecule", "result"],
 "data": [
  ["CSc1nc2nccnc2c(=O)[nH]1", "> 100 µM (inactive)"],
  ["CC(=O)N1C(=O)C(=O)c2cc(Cl)ccc21", "> 100 µM (inactive)"],
  ["COc1ccc(NC(=O)C2C(=O)N(c3ccc(OC)cc3)C(=O)/C2=N/O)cc1 (stereo unspecified)", "26.8 µM (inactive)"],
  ["Cc1nn(-c2ccccc2)c(-c2ccccc2[N+](=O)[O-])c1CC#N", "> 100 µM (inactive)"],
  ["COc1ccc(C2ON(c3ccccn3)CC=C2C)cc1 (stereo unspecified)", "> 100 µM (inactive)"]
]}

Query: So what does the record say about GI50 for O=[N+]([O-])C1C2C=CC(C2)[C@H]1c1ccco1 (stereo partly specified) ?
Result: > 100 µM (inactive)

====

# Tested on: UACC-62
# assay method text: NCI tumour cell line growth inhibition, 48 h
Active and inactive are the calls of the source. Cut-off read from the data, not from the text of the source: active = GI50 up to about 1.1 µM and inactive = higher.
readout type: GI50

Below: 2 molecules and their reported GI50.
{"columns": ["molecule", "GI50"],
 "data": [
  ["C=C(c1ccccc1)c1cc2c(=O)[nH]ccc2n1C", "28.5 µM (inactive)"],
  ["Cc1ccc(S(=O)(=O)[C@@H](Cl)[C@H]2N=C(Cl)NN=C2c2ccccc2)cc1", "15.1 µM (inactive)"]
]}

Query: So what does the record say about GI50 for CC1=CC2=C(C#N)C(=O)OC2(C)C(c2ccccc2)C1 (stereo not given) ?
Result: > 100 µM (inactive)

Query: So what does the record say about GI50 for "Brc1cc2nn(-c3ccccc3)nc2c2nonc12" ?
Result: > 100 µM (inactive)

Query: So what does the record say about GI50 for "Cn1c(=O)cc(NCCc2ccccc2)[nH]c1=O" ?
Result: 19.9 µM (inactive)

Query: So what does the record say about GI50 for N#CC(C(=O)C(=O)Nc1ccccc1)c1ccccc1 (stereo not given) ?
Result: > 100 µM (inactive)

Query: So what does the record say about GI50 for O=C(O)CN1C(=O)C(Cc2ccc(O)cc2)N=C(c2cccc(O)c2)c2ccccc21 (stereo not given) ?
Result: > 100 µM (inactive)

Query: So what does the record say about GI50 for "N#Cc1cccc(Nc2ccccc2SSc2ccccc2Nc2cccc(C#N)c2)c1" ?
Result: 7.1 µM (inactive)

Query: So what does the record say about GI50 for C=CC(Br)(CBr)CCC(Br)C(C)(C)Br (stereo not given) ?
Result: 12 µM (inactive)

Query: So what does the record say about GI50 for "CC1(C)O[C@@H](CP(c2cccc3ccccc23)c2cccc3ccccc23)[C@H](CP(c2cccc3ccccc23)c2cccc3ccccc23)O1" ?
Result: > 100 µM (inactive)

====

# System: OVCAR-8
# assay method text: NCI tumour cell line growth inhibition, 48 h
Calls of active or inactive are those of the source. No stated cut-off is given here; in the data, active = GI50 up to about 1.1 µM and inactive = higher.
In this exercise, the only acceptable responses are 1.0 (active), 0.0 (inactive)

{"columns": ["compound", "answer label"],
 "data": [
  ["COc1ccc(-c2oc(/C=N/c3ccccc3)c([N+](=O)[O-])c2-c2ccc(OC)c(OC)c2)cc1OC", 0.0],
  ["OC1=C2c3ccccc3NC2Oc2cc(F)ccc21 (configuration not stated)", 0.0],
  ["O=C(c1ccccc1F)c1c(NCc2ccccc2)c(=O)c1=O", 0.0]
]}

Proceed to the following item.
Query: Kindly provide the recorded test outcome for the following compound: "O=C(N/C(=C/c1ccc(Cl)cc1Cl)c1nc2ccccc2s1)c1ccccc1"
Result: 0.0

====

# System: BT-549
# assay method text: NCI tumour cell line growth inhibition, 48 h
Activity calls are given as the source filed them. Rule as the data show it: active = GI50 up to about 1.1 µM and inactive = higher.
readout type: GI50

Below: 5 compounds and their reported GI50.
{"columns": ["compound", "experimental system", "GI50"],
 "data": [
  ["Cc1cc(Cl)ccc1OCC(=O)Nc1nc(N)nc(N)n1", "BT-549", "> 100 µM (inactive)"],
  ["CC(C)(C)OC(=O)NC(Cc1ccccc1)NC(=O)NC(=O)OCc1ccccc1 (stereo unspecified)", "BT-549", "54.5 µM (inactive)"],
  ["Cc1ccc(/C=C/C(=N/NC(=O)N/N=C(/C=C/c2ccc(C)cc2)C(C)C)C(C)C)cc1", "BT-549", "> 10 µM (inactive)"],
  ["CCOC(=O)c1c(C)[nH]c2c1c(CN(C)C)c(O)c1nc(C)c(C)nc12", "BT-549", "26.2 µM (inactive)"],
  ["Cc1cc(O)nc(NN2C(Cl)C(=O)C2c2ccc(O)cc2)n1 (stereo unspecified)", "BT-549", "9.1 µM (inactive)"]
]}

Query: So what does the record say about GI50 for "CCCN1CC=C(c2cc(C(=O)OCC)[nH]c2-c2cc(C)no2)C1=O" ?
Result: > 100 µM (inactive)

Query: So what does the record say about GI50 for "CC(C)C(=O)C(C)(C)CCc1ccccn1" ?
Result: > 100 µM (inactive)

Query: So what does the record say about GI50 for "Cc1ccc2nc(/C=N/c3ccc(Cl)cc3)cc(C)c2c1" ?
Result: 13.9 µM (inactive)

Query: So what does the record say about GI50 for "Brc1cc2nn(-c3ccccc3)nc2c2nonc12" ?
Result: > 100 µM (inactive)

Query: So what does the record say about GI50 for "Cc1n2nc(N)sc2n[n+]1CC(=O)c1ccccc1" ?
Result: > 100 µM (inactive)

Query: So what does the record say about GI50 for "COC(=O)CCc1cc(OC)c2oc(-c3ccc(OC)c(OC)c3)c(CO)c2c1" ?
Result: > 100 µM (inactive)

====

# Test system: EKVX
# assay method text: NCI tumour cell line growth inhibition, 48 h
Activity calls are given as the source filed them. No stated cut-off is given here; in the data, active = GI50 up to about 1.1 µM and inactive = higher.
In this exercise, the only acceptable responses are true (active), false (inactive)

Reference set, count: 7
{"columns": ["compound", "answer label"],
 "data": [
  ["CC1=C(C(=O)Nc2ccccc2)C(c2ccc(N(C)C)cc2)C(C(=O)Nc2ccccc2)=C(C)N1", "false"],
  ["CC(C)C(=O)C(C)(C)CCc1ccccn1", "false"],
  ["CC1CCC2(NC1)OC1CC3[C@@H]4CC=C5C=CCC[C@]5(C)C4CC[C@]3(C)C1C2C (stereo partly drawn)", "false"],
  ["CCCCCCCCCC(=O)N[C@H]1CCc2cc(OC)c(OC)c(OC)c2-c2ccc(SC)c(=O)cc21", "true"],
  ["N#Cc1cccc(Nc2ccccc2SSc2ccccc2Nc2cccc(C#N)c2)c1", "false"],
  ["c1ccc2nc(CCC3CCCCN3)ccc2c1 (stereo not drawn)", "false"],
  ["Cc1c(N2CCCC2)cc2c(c1NC(=O)c1ccccc1Cl)C(C)(C)CC2(C)C", "false"]
]}

Query: Kindly provide the recorded test outcome for the following compound: N#CC(C(=O)C(=O)Nc1ccccc1)c1ccccc1 (stereo not drawn)
Result: false
